- Measurement Description: Dose normalized Cmax in C57BL/6 mouse at 1 mg/kg, iv bolus injection or 3 mg/kg, po by LC-MS/MS analysis
- Assay type: ADME, organism-based
- Experimental Context: in vivo
Measured Endpoint: Cmax/dose (nM)

Here are 2 compounds together with their reported answers.
smi=CC(C)(O)c1cc(COc2ccccc2CC(=O)O)cc(-c2ccc3c(c2)[C@H](N)CO3)c1 measured_endpoint=Cmax/dose assay_value=99
smi=CC(C)c1cc(COc2ccccc2CC(=O)O)cc(-c2ccc3c(c2)[C@H](N)CO3)c1 measured_endpoint=Cmax/dose assay_value=5263

(1) CC(C)(C#N)c1cc(COc2ccccc2CC(=O)O)cc(-c2ccc3c(c2)[C@H](N)CO3)c1
(2) CC1(C)COc2c(COc3ccccc3CC(=O)O)cc(-c3ccc4c(c3)[C@H](N)CO4)cc21
# input For the two items 1 and 2 , which reports the higher Cmax/dose value? Which one? Tell me its label.
# output 2
(2: 1126 nM, 1: 137 nM)

Hey, just so you know, these numbers are from ChEMBL document CHEMBL4619774.
